target-entity: T1, CD40 ligand (CD40L or CD154) (UniProt P29965 113-261, limits assumed, biotinylated ('biotinylated phospho-CD40L') in the proximity assay as described in paragraph 342)
T1 construct: Species never stated; also called soluble CD40L; CD40L target protein
T1 sequence (looked up): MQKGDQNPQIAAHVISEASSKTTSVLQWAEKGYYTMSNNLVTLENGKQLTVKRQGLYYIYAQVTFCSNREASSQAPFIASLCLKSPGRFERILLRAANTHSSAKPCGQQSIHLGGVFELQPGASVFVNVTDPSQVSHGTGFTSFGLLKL
test-name: BLI, Octet Red (ForteBio), label-free
pKd: −log10 of the molar value.

{"binder": "CD40L M8_747 (peptide) peptide: LAEHAVWSLKCFPDWEWYNINIFGTDDPNHFWVECDGHGKILFPGYPEGYYENHFLHSFELED", "pKd": 8.10}
